molecular target: Y5R (Homo sapiens); type: binding
Sequence (Q15761 whole entry): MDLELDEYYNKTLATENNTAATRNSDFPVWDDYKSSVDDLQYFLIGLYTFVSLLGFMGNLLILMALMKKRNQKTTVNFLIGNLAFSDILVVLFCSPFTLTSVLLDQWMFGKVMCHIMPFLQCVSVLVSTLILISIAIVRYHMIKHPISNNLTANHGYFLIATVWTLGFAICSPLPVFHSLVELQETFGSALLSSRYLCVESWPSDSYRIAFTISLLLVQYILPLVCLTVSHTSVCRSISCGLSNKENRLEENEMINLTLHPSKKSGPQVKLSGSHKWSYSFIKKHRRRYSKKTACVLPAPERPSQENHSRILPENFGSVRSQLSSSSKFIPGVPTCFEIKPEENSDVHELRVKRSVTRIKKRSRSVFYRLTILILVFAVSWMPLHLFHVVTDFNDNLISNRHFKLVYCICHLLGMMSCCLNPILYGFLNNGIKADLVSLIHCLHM
pKi: −log10 of the molar value.
endpoint: pKi

[[record]]
substance = "Ac-YRLRY-NH2 [Compound 3, Ac-Tyr-Arg-Leu-Arg-Tyr-amide, reference compound]"
endpoint = "pKi"
reportedresult = "< 5.30"


====

Molecular target: Y1R (Homo sapiens, UniProt P25929)
Sequence (P25929 1-384): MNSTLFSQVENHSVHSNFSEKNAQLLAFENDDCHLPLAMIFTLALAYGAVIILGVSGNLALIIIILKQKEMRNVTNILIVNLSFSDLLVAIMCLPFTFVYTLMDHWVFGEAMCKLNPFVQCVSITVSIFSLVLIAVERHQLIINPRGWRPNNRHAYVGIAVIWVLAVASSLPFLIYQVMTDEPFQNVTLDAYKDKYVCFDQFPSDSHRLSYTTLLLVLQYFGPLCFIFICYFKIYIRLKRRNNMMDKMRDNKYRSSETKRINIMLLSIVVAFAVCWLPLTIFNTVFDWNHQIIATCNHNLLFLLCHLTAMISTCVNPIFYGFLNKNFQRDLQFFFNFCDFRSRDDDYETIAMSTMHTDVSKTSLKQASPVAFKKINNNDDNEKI
Experiment: Radioligand competition binding assay at Y1R with 46 using MCF-7-hY1 cells
pKi: −log10 of the molar value.
endpoint: pKi

[[record]]
substance = "Ac-YRLRY-NH2 [Compound 3, Ac-Tyr-Arg-Leu-Arg-Tyr-amide, reference compound]"
reportedresult = "< 5.30"

